System: Wolbachia pipientis
test_protocol: Anti-Wolbachia Cell-Based Screen
Assay type: functional
Design: scale not given: in the data most compounds retested in dose-response had high values
measurement_setup: 5 µM
Among all 48,000 compounds or so, about 13,000 (27%) showed an effect of 50% or more. The list shows a part of the results.
Hi there, I'd appreciate the recorded Percent Effect for every entry that follows.
Reply with just the number (in %).

Memo: NC1(C(=O)N2CCC(c3cc(-c4ccccc4Cl)n[nH]3)CC2)CCC1 , reported Percent Effect: -26.69

Memo: CCC(CC)CN1C[C@@H]2OCCN(Cc3cnn(C)c3)[C@@H]2C1 , reported Percent Effect: -7.114

Memo: O=C(CN1CCc2cncnc2C1)NC(c1ccccc1)C1CC1 (stereo unspecified) , reported Percent Effect: 5.851

Memo: CCc1nc(CCn2ccnc2-c2nccn2C)no1 , reported Percent Effect: -9.052

Memo: Cc1nc(C)c(CN2CCC(N(C)Cc3nnc(C4CC4)o3)C2)s1 (stereo unspecified) , reported Percent Effect: 83.42

Memo: Cc1csc(C2(NCCC(=O)N3CCOCC3)CCCC2)n1 , reported Percent Effect: -0.7458

Memo: O=C(Nc1ccccc1)N1CCC(N2Cc3ncccc3C2=O)CC1 , reported Percent Effect: -2.29

Memo: Cc1scc(C(=O)N2CCC3(CCCN(C)C3=O)C2)c1-c1ccccc1 (stereo unspecified) , reported Percent Effect: -11

Memo: CCC(C)C(=O)NCc1cc(Br)c(OC)c(OC)c1 (stereo unspecified) , reported Percent Effect: -3.921

Memo: O=C(NC1CCN(C2CC2)CC1)c1[nH]nc(C2CC2)c1Cl , reported Percent Effect: 0.5841

Memo: Cc1nc(CN(C)C2CCN(Cc3sc(C)nc3C)C2)no1 (stereo unspecified) , reported Percent Effect: -5.233
